Assay: Inhibition of HCV genotype 2a NS5B RNA dependent RNA polymerase assessed as reduction in [33P]-labeled nucleotide incorporation in to RNA template after 2 hrs by liquid scintillation counting method
Set-up: species or system Hepatitis C virus subtype 2a
Observed Property: pIC50
Numbers only, as −log10 of the molar value.

[in] Which pIC50 value belongs to C[C@@]1(Cl)[C@H](O)[C@@H](COP(=O)(O)OP(=O)(O)OP(=O)(O)O)O[C@H]1n1ccc(=O)[nH]c1=O ?
[out] 6.60

---

System: Liver
Assay: Dose normalized AUC (0 to 24 hrs) in mouse liver assessed as 2'-C-MeUTP level at 10 mg/kg, po administered as single dose
Assay type: ADME, organism-based
Conditions: in vivo
Observed Property: AUC/dose (pmol·h/g)
Answers are plain numbers, in pmol·h/g.

The cases that follow already have their AUC/dose on record.
>  <Compound>
CC(C)OC(=O)[C@@H](C)NP(=O)(N[C@H](C)C(=O)OC(C)C)OC[C@H]1O[C@@H](n2ccc(=O)[nH]c2=O)[C@](C)(Cl)[C@@H]1O

>  <AUC/dose (pmol·h/g)>
490

$$$$
>  <Compound>
CC(C)OC(=O)[C@H](C)N[P@]1(=O)OC[C@H]2O[C@@H](n3ccc(=O)[nH]c3=O)[C@](C)(Cl)[C@@H]2O1

>  <AUC/dose (pmol·h/g)>
21

$$$$
>  <Compound>
CC(C)(CO)C(=O)SCCOP1(=O)OC[C@H]2O[C@@H](n3ccc(=O)[nH]c3=O)[C@](C)(Cl)[C@@H]2O1 (single isomer, unassigned)

>  <AUC/dose (pmol·h/g)>
5000

$$$$
>  <Compound>
CCOC(=O)[C@H](CC(C)C)N[P@@](=O)(OC[C@H]1O[C@@H](n2ccc(=O)[nH]c2=O)[C@](C)(Cl)[C@@H]1O)Oc1ccccc1

>  <AUC/dose (pmol·h/g)>
220

$$$$
>  <Compound>
C[C@@H](N[P@](=O)(OC[C@H]1O[C@@H](n2ccc(=O)[nH]c2=O)[C@](C)(Cl)[C@@H]1O)Oc1ccccc1)C(=O)OCc1ccccc1

>  <AUC/dose (pmol·h/g)>
6900

$$$$
>  <Compound>
CC(C)OC(=O)[C@@H](C)N[P@@](=O)(OC[C@H]1O[C@@H](n2ccc(=O)[nH]c2=O)[C@](C)(Cl)[C@@H]1O)Oc1ccccc1 [UPRIFOSBUVIR]

>  <AUC/dose (pmol·h/g)>
6200

$$$$
>  <Compound>
CC(C)OC(=O)[C@@H](C)N[P@]1(=O)OC[C@H]2O[C@@H](n3ccc(=O)[nH]c3=O)[C@](C)(Cl)[C@@H]2O1

>  <AUC/dose (pmol·h/g)>
7500

$$$$

[in] Fill in: AUC/dose of CC(C)(CO)C(=O)SCCO[P@@](=O)(NCc1ccccc1)OC[C@H]1O[C@@H](n2ccc(=O)[nH]c2=O)[C@](C)(Cl)[C@@H]1O is ___
[out] 150

---

Please go through the items and note down their Ratio CC50/EC50.
Experiment: Selectivity index, ratio of CC50 for human Huh-7 cells to EC50 for HCV genotype 1b Con1 expressing NS3 protease

>  <Structure>
CC(C)OC(=O)[C@@H](N[P@](=O)(OC[C@H]1O[C@@H](n2ccc(=O)[nH]c2=O)[C@](C)(Cl)[C@@H]1O)Oc1ccccc1)C(C)C

>  <Ratio CC50/EC50>
>1

$$$$

For each of the compounds below, note its Ratio CC50/EC50.
1. CCOC(=O)[C@H](CC(C)C)N[P@@](=O)(OC[C@H]1O[C@@H](n2ccc(=O)[nH]c2=O)[C@](C)(Cl)[C@@H]1O)Oc1ccccc1
2. CC(C)OC(=O)[C@H](C)NP(=O)(N[C@@H](C)C(=O)OC(C)C)OC[C@H]1O[C@@H](n2ccc(=O)[nH]c2=O)[C@](C)(Cl)[C@@H]1O
3. CC(C)OC(=O)[C@H](C)N[P@@]1(=O)OC[C@H]2O[C@@H](n3ccc(=O)[nH]c3=O)[C@](C)(Cl)[C@@H]2O1
4. CC(C)(CO)C(=O)SCCO[P@@](=O)(NCc1ccccc1)OC[C@H]1O[C@@H](n2ccc(=O)[nH]c2=O)[C@](C)(Cl)[C@@H]1O

[out]
[">40", ">8", ">25", ">25"]

Required: Ratio CC50/EC50, one value per compound below.
1. C[C@H](N[P@](=O)(OC[C@H]1O[C@@H](n2ccc(=O)[nH]c2=O)[C@](C)(Cl)[C@@H]1O)Oc1ccccc1)C(=O)OCc1ccccc1
2. CCCCOC(=O)[C@@H](C)N[P@@](=O)(OC[C@H]1O[C@@H](n2ccc(=O)[nH]c2=O)[C@](C)(Cl)[C@@H]1O)Oc1ccccc1
3. CC(C)OC(=O)[C@@H](C)N[P@]1(=O)OC[C@H]2O[C@@H](n3ccc(=O)[nH]c3=O)[C@](C)(Cl)[C@@H]2O1

[out]
[">1408", ">46", ">2"]

Look at each compound and report its Ratio CC50/EC50.
1. CCOC(=O)[C@@H](C)N[P@](=O)(OC[C@H]1O[C@@H](n2ccc(=O)[nH]c2=O)[C@](C)(Cl)[C@@H]1O)Oc1ccccc1
2. CCOC(=O)[C@@H](C)N[P@@](=O)(OC[C@H]1O[C@@H](n2ccc(=O)[nH]c2=O)[C@](C)(Cl)[C@@H]1O)Oc1ccccc1

[out]
>39
>12

Batch request: Ratio CC50/EC50 per item, same order as input.
1. CCOC(=O)NCC(C)(C)C(=O)SCCO[P@](=O)(NCc1ccccc1)OC[C@H]1O[C@@H](n2ccc(=O)[nH]c2=O)[C@](C)(Cl)[C@@H]1O
2. C[C@@H](N[P@](=O)(OC[C@H]1O[C@@H](n2ccc(=O)[nH]c2=O)[C@](C)(Cl)[C@@H]1O)Oc1ccccc1)C(=O)OCc1ccccc1
3. CCOC(=O)[C@H](C)N[P@@](=O)(OC[C@H]1O[C@@H](n2ccc(=O)[nH]c2=O)[C@](C)(Cl)[C@@H]1O)Oc1ccccc1

[out]
1. >79
2. >122
3. >118

---

Tested on: Plasma
Assay: Dose normalized AUC (0 to 24 hrs) in mouse plasma assessed as 2'-C-MeU level at 10 mg/kg, po administered as single dose
Format: ADME, organism-based
Conditions: in vivo
Could you please mark rule met for values of AUC/dose below 700 pmol·h/mL and rule not met for values at or above it?

>  <Molecule>
C[C@H](N[P@](=O)(OC[C@H]1O[C@@H](n2ccc(=O)[nH]c2=O)[C@](C)(Cl)[C@@H]1O)Oc1ccccc1)C(=O)OCc1ccccc1

>  <Discrete Label>
rule not met

$$$$
>  <Molecule>
CC(C)OC(=O)[C@H](C)N[P@@](=O)(OC[C@H]1O[C@@H](n2ccc(=O)[nH]c2=O)[C@](C)(F)[C@@H]1O)Oc1ccccc1

>  <Discrete Label>
rule met

$$$$

[in] Regarding C[C@H](N[P@@](=O)(OC[C@H]1O[C@@H](n2ccc(=O)[nH]c2=O)[C@](C)(Cl)[C@@H]1O)Oc1ccccc1)C(=O)OCc1ccccc1 , kindly confirm whether its AUC/dose is beneath 700 pmol·h/mL.
[out] rule not met

[in] Does the reported AUC/dose of the following molecule sit strictly below 700 pmol·h/mL? CC(C)OC(=O)[C@@H](C)N[P@](=O)(OC[C@H]1O[C@@H](n2ccc(=O)[nH]c2=O)[C@](C)(Cl)[C@@H]1O)Oc1ccccc1
[out] rule not met

---

Test system: Liver
Assay: Dose normalized AUC (0 to 24 hrs) in mouse liver assessed as 2'-C-MeUTP level at 10 mg/kg, po administered as single dose
Type: ADME, organism-based
Settings: in vivo
Observed Property: AUC/dose (pmol·h/g)
One number for each entry, in pmol·h/g.

>  <Compound>
CC(C)OC(=O)[C@H](C)N[P@@](=O)(OC[C@H]1O[C@@H](n2ccc(=O)[nH]c2=O)[C@](C)(F)[C@@H]1O)Oc1ccccc1

>  <AUC/dose (pmol·h/g)>
310

$$$$
>  <Compound>
C[C@@H](N[P@@](=O)(OC[C@H]1O[C@@H](n2ccc(=O)[nH]c2=O)[C@](C)(Cl)[C@@H]1O)Oc1ccccc1)C(=O)OCc1ccccc1

>  <AUC/dose (pmol·h/g)>
5600

$$$$
>  <Compound>
CCOC(=O)NCC(C)(C)C(=O)SCCOP1(=O)OC[C@H]2O[C@@H](n3ccc(=O)[nH]c3=O)[C@](C)(Cl)[C@@H]2O1 (single isomer, unassigned; 27b)

>  <AUC/dose (pmol·h/g)>
3300

$$$$
>  <Compound>
CC(C)OC(=O)[C@H](C)N[P@@]1(=O)OC[C@H]2O[C@@H](n3ccc(=O)[nH]c3=O)[C@](C)(Cl)[C@@H]2O1

>  <AUC/dose (pmol·h/g)>
520

$$$$
>  <Compound>
CCOC(=O)[C@H](CC(C)C)N[P@](=O)(OC[C@H]1O[C@@H](n2ccc(=O)[nH]c2=O)[C@](C)(Cl)[C@@H]1O)Oc1ccccc1

>  <AUC/dose (pmol·h/g)>
270

$$$$
>  <Compound>
CCCCOC(=O)[C@@H](C)N[P@@](=O)(OC[C@H]1O[C@@H](n2ccc(=O)[nH]c2=O)[C@](C)(Cl)[C@@H]1O)Oc1ccccc1

>  <AUC/dose (pmol·h/g)>
8400

$$$$
>  <Compound>
CC(C)(CO)C(=O)SCCOP(=O)(NCc1ccccc1)OC[C@H]1O[C@@H](n2cnc3c(=O)[nH]c(N)nc32)[C@](C)(O)[C@@H]1O (stereo partly drawn)

>  <AUC/dose (pmol·h/g)>
275

$$$$
>  <Compound>
CC(C)(CO)C(=O)SCCO[P@@]1(=O)OC[C@H]2O[C@@H](n3ccc(=O)[nH]c3=O)[C@](C)(Cl)[C@@H]2O1

>  <AUC/dose (pmol·h/g)>
3600

$$$$

Okay, here is my list. What is AUC/dose for each of these?
1. C[C@H](N[P@@](=O)(OC[C@H]1O[C@@H](n2ccc(=O)[nH]c2=O)[C@](C)(Cl)[C@@H]1O)Oc1ccccc1)C(=O)OCc1ccccc1
2. CC(C)OC(=O)[C@H](C)N[P@](=O)(OC[C@H]1O[C@@H](n2ccc(=O)[nH]c2=O)[C@](C)(Cl)[C@@H]1O)Oc1ccccc1
3. CC(C)(CO)C(=O)SCCO[P@](=O)(NCc1ccccc1)OC[C@H]1O[C@@H](n2ccc(=O)[nH]c2=O)[C@](C)(Cl)[C@@H]1O
4. CC(C)OC(=O)[C@H](C)N[P@](=O)(OC[C@H]1O[C@@H](n2ccc(=O)[nH]c2=O)[C@](C)(F)[C@@H]1O)Oc1ccccc1 [SOFOSBUVIR]
5. CC(C)OC(=O)[C@H](C)N[P@@](=O)(OC[C@H]1O[C@@H](n2ccc(=O)[nH]c2=O)[C@](C)(Cl)[C@@H]1O)Oc1ccccc1

[out]
1: 1200; 2: 560; 3: 96; 4: 310; 5: 840
